Where do these numbers come from? They come from ChEMBL document CHEMBL1128431.

- Test system: Mus musculus
- Assay comment: % Pu(IV) retained after 24 hours in soft tissue of mice under the effect of 30uM/kg(po, gastric intubation) of ligand administered 3 min after iv injection of Pu(IV) citrate
- Format: functional
// reported ID per item
Report field: quantity (unit follows the number).

[[record]]
compound_structure = "Cn1ccc(C(=O)NCCN(CCCN(CCNC(=O)c2ccn(C)c(=O)c2O)CCNC(=O)c2ccn(C)c(=O)c2O)CCNC(=O)c2ccn(C)c(=O)c2O)c(O)c1=O"
observed_value = "3.1%"

[[record]]
compound_structure = "Cn1ccc(C(=O)NCCN(CCNC(=O)c2ccn(C)c(=O)c2O)CCN(CCNC(=O)c2ccn(C)c(=O)c2O)CCNC(=O)c2ccn(C)c(=O)c2O)c(O)c1=O"
observed_value = "4%"

[[record]]
compound_structure = "Cn1ccc(C(=O)NCCCCNC(=O)c2ccn(C)c(=O)c2O)c(O)c1=O"
observed_value = "3.2%"


Query string: Give the reported ID for this molecule. "Cn1ccc(C(=O)NCCN(CCNC(=O)c2ccn(C)c(=O)c2O)CCNC(=O)c2ccn(C)c(=O)c2O)c(O)c1=O"
Result string: 1.9%

Query string: Give the reported ID for this molecule. "O=C(NCCCN(CCCCN(CCCNC(=O)c1cccc(=O)n1O)C(=O)c1cccc(=O)n1O)C(=O)c1cccc(=O)n1O)c1cccc(=O)n1O"
Result string: 13%
